- PROTOCOL: Acute toxicity
- Type: in vivo, mice (ddy)
- CONDITION LABEL: mouse, in vivo, ip; read-out: (C.I.)* = (LD50/ED50)/[(LD50/ED50) of MMC1]
ATTRIBUTE MEASURED: selectivity ratio
Output spec: single numeric token, no unit.

CC1=C(NCCSSCCNC(=O)[C@@H]2CCC(=O)N2)C(=O)C2=C(C1=O)N1C[C@H]3[C@H](N3C)[C@]1(O)[C@H]2COC(N)=O (some centres unmarked)	1.8
CO[C@@]12[C@H](COC(N)=O)C3=C(C(=O)C(C)=C(NCCSSCCC(=O)NCCc4ccc(O)c(O)c4)C3=O)N1C[C@@H]1N[C@@H]12	1.15

Given CCOC(=O)CNC(=O)CCSSCCNC1=C(C)C(=O)C2=C(C1=O)[C@@H](COC(N)=O)[C@@]1(OC)[C@H]3N[C@H]3CN21 , state its recorded selectivity ratio.
1.77

Given CO[C@@]12[C@H](COC(N)=O)C3=C(C(=O)C(C)=C(NCCSSCCNC(=O)/C=C(C)/C=C/C=C(C)/C=C/C4=C(C)CCCC4(C)C)C3=O)N1C[C@@H]1N[C@@H]12 , state its recorded selectivity ratio.
0.82

Given CC1=C(NCCSSCc2cn([C@H]3C[C@H](O)[C@@H](CO)O3)c(=O)[nH]c2=O)C(=O)C2=C(C1=O)N1C[C@H]3[C@H](N3C)[C@]1(O)[C@H]2COC(N)=O (some centres unmarked) , state its recorded selectivity ratio.
1.22

Given CC1=C(NCCSSCCNC=O)C(=O)C2=C(C1=O)N1C[C@H]3[C@H](N3C)[C@]1(O)[C@H]2COC(N)=O (some centres unmarked) , state its recorded selectivity ratio.
1.94

Given CC1=C(NCCSSCCNC(=O)C[C@H](N)C(=O)O)C(=O)C2=C(C1=O)N1C[C@H]3[C@H](N3C)[C@]1(O)[C@H]2COC(N)=O (some centres unmarked) , state its recorded selectivity ratio.
2.19

Given CC(=O)NCCSSCCNC1=C(C)C(=O)C2=C(C1=O)[C@H](COC(N)=O)[C@@]1(O)[C@@H]3[C@H](CN21)N3C (some centres unmarked) , state its recorded selectivity ratio.
2.73

* * *

- PROTOCOL: in vivo
- Assay type: in vivo, mice (ddy strain)
- CONDITION LABEL: mouse, in vivo, ip; read-out: (WBC4000/ED50)* = (WBC4000/ED50)/[(WBC4000/ED50) of MMC1]
# selectivity ratio per entry
Output spec: single numeric token, no unit.

CC1=C(NCCSSCCNC(=O)[C@@H]2CCC(=O)N2)C(=O)C2=C(C1=O)N1C[C@H]3[C@H](N3C)[C@]1(O)[C@H]2COC(N)=O (stereo partly shown)	5.57

Given CC1=C(NCCSSCCNC=O)C(=O)C2=C(C1=O)N1C[C@H]3[C@H](N3C)[C@]1(O)[C@H]2COC(N)=O (stereo partly shown) , state its recorded selectivity ratio.
3.89

Given CO[C@@]12[C@H](COC(N)=O)C3=C(C(=O)C(C)=C(NCCSSCCNC(=O)C[C@H](N)C(=O)O)C3=O)N1C[C@@H]1N[C@@H]12 , state its recorded selectivity ratio.
2.38

Given CO[C@@]12[C@H](COC(N)=O)C3=C(C(=O)C(C)=C(NCCSSCCNC(=O)c4cc(=O)[nH]c(=O)[nH]4)C3=O)N1C[C@@H]1N[C@@H]12 , state its recorded selectivity ratio.
1.2

Given CC1=C(NCCSSCCC(=O)N[C@@H](CCCCN)C(=O)O)C(=O)C2=C(C1=O)N1C[C@H]3[C@H](N3C)[C@]1(O)[C@H]2COC(N)=O (stereo partly shown) , state its recorded selectivity ratio.
1.59

Given CC1=C(NCCSSCc2cn([C@H]3C[C@H](O)[C@@H](CO)O3)c(=O)[nH]c2=O)C(=O)C2=C(C1=O)N1C[C@H]3[C@H](N3C)[C@]1(O)[C@H]2COC(N)=O (stereo partly shown) , state its recorded selectivity ratio.
0.95
